Data credit: patent US20240279215A1

# Study target: UniProt:P43490
# Sequence (P43490 whole entry): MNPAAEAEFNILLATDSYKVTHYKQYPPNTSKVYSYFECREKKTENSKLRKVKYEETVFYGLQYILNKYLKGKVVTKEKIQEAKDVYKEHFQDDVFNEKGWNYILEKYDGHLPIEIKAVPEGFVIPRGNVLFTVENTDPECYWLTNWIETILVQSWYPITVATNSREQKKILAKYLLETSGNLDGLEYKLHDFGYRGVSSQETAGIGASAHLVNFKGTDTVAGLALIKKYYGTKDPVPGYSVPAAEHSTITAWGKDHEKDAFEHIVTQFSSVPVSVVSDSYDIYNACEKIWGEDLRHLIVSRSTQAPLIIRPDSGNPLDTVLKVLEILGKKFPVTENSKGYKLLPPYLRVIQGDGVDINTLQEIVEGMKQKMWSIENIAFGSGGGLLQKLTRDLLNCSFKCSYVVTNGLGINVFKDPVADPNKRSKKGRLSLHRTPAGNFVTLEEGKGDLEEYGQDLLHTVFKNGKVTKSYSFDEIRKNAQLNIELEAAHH
# Protocol description: NMN fluorescence biochemical assay (human recombinant NAMPT enzyme assay)
Property: pEC50
Bear in mind: pEC50 is minus log10 of a mol/L concentration; give just that figure.

Query: pEC50; subject: O=C(Nc1ccc(CC2CC3CCC(C2)N3C(=O)N2CCC2)cc1)OCc1cnco1 (centres unmarked)
5.16

Query: pEC50; subject: Cc1ocnc1C(=O)NCc1ccc(NC(=O)OCc2ccc(Cl)cc2)cc1
4.25

Query: pEC50; subject: CN(C)S(=O)(=O)N1C2CCC1CC(Cc1ccc(NC(=O)OCc3cnco3)cc1)C2 (centres unmarked)
5.47

Query: pEC50; subject: CN(Cc1ccc(NC(=O)OCc2ccc(Cl)cc2)cc1)C(=O)c1ccc(C(F)F)nc1
4.69

Query: pEC50; subject: Cn1nccc1Cc1ccc(NC(=O)OCc2ccc(Cl)cc2)cc1
4.42

Query: pEC50; subject: Cc1noc(C(=O)N(C)Cc2ccc(NC(=O)OCc3ccc(Cl)cc3)cc2)c1C
5.05

Query: pEC50; subject: O=C(Nc1ccc(Cc2cncs2)cc1)OCc1ccc(Cl)cc1
4.43

Query: pEC50; subject: CC(=O)N1CCC2(CC(c3ccc(NC(=O)OCc4cnco4)cc3F)C2)C1 (single isomer, unassigned) [Compound 372]
5.25
